Target: HLA-DQ DQA1*0101/DQB1*0501 (human (endogenous in EBV-transformed cell line LG2))
Experiment: radioligand binding
observed-property: IC50 (nM)
Just the number please, in nM, no unit attached.

### Prompt Suppose we examine the binder PLYRYLGGSFSHVL [C. trachomatis enolase peptide …] ; what IC50 value has been reported?
### Response 2460

Hello, the source for this data is paper PMC3307390, in case you need it.
